- TEST: Clearance in mouse at 2.5 mg/kg, iv
- Type: ADME, organism-based
- Parameters: dose 2.5 mg/kg, route intravenous
- CONDITIONS: in vivo
METRIC NAME: clearance (mL/min/kg)
Just the number please, in mL/min/kg, no unit attached.

Requested read-out: clearance. Entry: "CC(C)[C@@H](NC(=O)c1ccccc1)C(=O)N1CCC(c2ccc(Cl)cc2)CC1"
12.5

====

- MEASURED ON: C-C chemokine receptor type 1 (Homo sapiens, UniProt P32246)
- TEST: Antagonist activity at CCR1 in human THP1 cells assessed as inhibition of CK-8beta-induced calcium flux by FLIPR
- Type: functional, cell-based, THP-1
METRIC NAME: pIC50
Just the number, please; pIC50 means minus log10 of the concentration in mol/L.

Recorded pIC50 for "CC(C)[C@@H](NC(=O)c1ccccc1)C(=O)N1CCC(c2ccc(Cl)cc2)CC1" , please?
7.07

====

- TEST: Half life in mouse at 5.2 mg/kg, po
- Type: ADME, organism-based
- Parameters: dose 5.2 mg/kg, route oral
- CONDITIONS: in vivo
METRIC NAME: half-life (h)
Output spec: scalar in h, unitless text.

Which value of half-life has been reported for "CC(C)[C@@H](NC(=O)c1ccccc1)C(=O)N1CCC(c2ccc(Cl)cc2)CC1" in the records?
5.2

====

- MEASURED ON: Cytochrome P450 2C19 (Homo sapiens, UniProt P33261)
- Sequence (P33261 whole entry): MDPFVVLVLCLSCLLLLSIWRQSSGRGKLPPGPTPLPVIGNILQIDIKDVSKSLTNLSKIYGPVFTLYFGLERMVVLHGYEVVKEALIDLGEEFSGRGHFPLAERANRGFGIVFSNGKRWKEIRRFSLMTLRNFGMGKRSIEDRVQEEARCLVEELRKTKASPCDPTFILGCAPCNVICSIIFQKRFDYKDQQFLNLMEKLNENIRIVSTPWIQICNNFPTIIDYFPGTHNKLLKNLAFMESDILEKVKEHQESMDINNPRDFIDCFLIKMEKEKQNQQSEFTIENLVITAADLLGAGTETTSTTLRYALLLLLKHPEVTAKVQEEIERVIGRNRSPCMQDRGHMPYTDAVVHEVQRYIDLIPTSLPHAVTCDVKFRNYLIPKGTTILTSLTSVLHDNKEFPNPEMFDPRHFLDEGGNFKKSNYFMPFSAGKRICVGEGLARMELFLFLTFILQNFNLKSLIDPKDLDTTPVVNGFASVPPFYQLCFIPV
- TEST: Inhibition of recombinant CYP2C19 expressed in baculovirus-infected insect cells using fluorogeinc substrate
METRIC NAME: IC50

Param readout = IC50; param system = Cytochrome P450 2C19 (Homo sapiens, UniProt P33261); param query = "CC(C)[C@@H](NC(=O)c1ccccc1)C(=O)N1CCC(c2ccc(Cl)cc2)CC1" ; response: value
> 40 µM

====

- TEST: AUC in mouse at 2.5 mg/kg, iv
- Assay type: ADME, organism-based
- Set-up: dose 2.5 mg/kg, route intravenous
- CONDITIONS: plasma
METRIC NAME: AUC (µM·h)
State just the number; it will be interpreted in µM·h.

Tell me the measured AUC of "CC(C)[C@@H](NC(=O)c1ccccc1)C(=O)N1CCC(c2ccc(Cl)cc2)CC1" , please.
5.9

====

- MEASURED ON: UniProtKB P32246
- Sequence (P32246 whole entry): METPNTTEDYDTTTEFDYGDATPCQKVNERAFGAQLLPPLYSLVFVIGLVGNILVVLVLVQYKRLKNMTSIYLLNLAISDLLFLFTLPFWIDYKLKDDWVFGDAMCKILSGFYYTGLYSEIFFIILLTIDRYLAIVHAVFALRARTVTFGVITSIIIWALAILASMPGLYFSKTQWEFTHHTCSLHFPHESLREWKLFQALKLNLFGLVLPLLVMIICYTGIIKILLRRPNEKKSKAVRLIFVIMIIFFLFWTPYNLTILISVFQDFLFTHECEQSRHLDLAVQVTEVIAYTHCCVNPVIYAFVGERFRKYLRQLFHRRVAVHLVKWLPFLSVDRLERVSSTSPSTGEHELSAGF
- TEST: Displacement of [125I]MIP-1alpha from CCR1 in human THP1 cells
- Type: cell-based, THP-1
METRIC NAME: IC50
Reply with a number, then the unit it belongs to.

CC(C)C(NC(=O)OCc1ccccc1)C(=O)N1CCC(O)(c2ccc(Cl)cc2)CC1 (centres undefined)    854 nM
CC(C)C(=O)NC(C(=O)N1CCC(c2ccc(Cl)cc2)CC1)C(C)C (centres undefined)    388 nM
O=C(N[C@@H](C(=O)N1CCC(c2ccc(Cl)cc2)CC1)C1CCCCC1)c1ccccc1    121 nM

Please find the next molecule below.
Consider the molecule Cc1ccccc1C(=O)NC(C(=O)N1CCC(c2ccc(Cl)cc2)CC1)C(C)(C)C (centres undefined) and give its measured IC50.
262 nM
